Test system: L. mexicana (MHOM/MX/2017/UABJO17FCQEPS) (FCQEPS) promastigotes
Experiment: In vitro leishmanicidal activity, MTT method, 48 h
Type: cell-based, Leishmania mexicana
Conditions: CC50 (J774.2)/IC50
result.type: Selectivity Index L. mexicana FCQEPS

Request: // lookup Selectivity Index L. mexicana FCQEPS for CCOC(=O)c1nc(C)c(C(=O)OC2C[C@@H]3CC[C@@]2(C)C3(C)C)cc1-c1ccc(F)cc1 (stereo partly drawn)
Response: >1

Request: Subsequent entry: "CCOC(=O)c1nc(C)c(C(=O)OCc2ccc(C)cc2)cc1-c1ccc(C)cc1"
Response: >1

Request: Subsequent entry: "CCOC(=O)c1nc(C)c(C(=O)O[C@@H]2C[C@@H](C)CC[C@@H]2C(C)C)cc1-c1ccc(C)cc1"
Response: >1

Request: Subsequent entry: CNC[C@H](O)[C@@H](O)[C@H](O)[C@H](O)CO.[O]=[Sb](=[O])[OH] [Glc, Glucantime, reference compound]
Response: 2.2

Request: Subsequent entry: "CCOC(=O)c1nc(C)c(C(=O)OCc2ccccc2)cc1-c1ccc(F)cc1"
Response: >1

Request: Subsequent entry: CCOC(=O)c1nc(C)c(C(=O)OC2C[C@@H]3CC[C@@]2(C)C3(C)C)cc1-c1ccccc1 (stereo partly drawn)
Response: >1

Request: Subsequent entry: "CCOC(=O)c1nc(C)c(C(=O)OCc2ccccc2)cc1-c1ccc(C)cc1"
Response: >1

Request: Subsequent entry: "CCOC(=O)c1cc(-c2ccc(C)cc2)c(C(=O)OCC)nc1C"
Response: >1

Request: Subsequent entry: "CCOC(=O)c1nc(C)c(C(=O)OCC=Cc2ccccc2)cc1-c1ccc(C)cc1"
Response: >1.7

Request: Subsequent entry: "CCOC(=O)c1nc(C)c(C(=O)OCc2ccccc2)cc1-c1ccccc1"
Response: >1

Request: Subsequent entry: CCOC(=O)c1nc(C)c(C(=O)OCCC(C)CCC=C(C)C)cc1-c1ccccc1 (stereo not drawn) [Compound 11a]
Response: 1.6

Request: Subsequent entry: "CCOC(=O)c1nc(C)c(C(=O)OCc2ccc(C)cc2)cc1-c1ccc(F)cc1"
Response: >1

Request: Subsequent entry: CCOC(=O)c1nc(C)c(C(=O)OC/C=C(\C)CCC=C(C)C)cc1-c1ccc(F)cc1 [Compound 12c]
Response: >1.7

Request: Subsequent entry: "CCOC(=O)c1nc(C)c(C(=O)OCc2ccc(C)cc2)cc1-c1ccccc1"
Response: >2.1

Request: Subsequent entry: "CCOC(=O)c1cc(-c2ccc(F)cc2)c(C(=O)OCC)nc1C"
Response: >1.7

Request: Subsequent entry: CCOC(=O)c1nc(C)c(C(=O)OCC23CC4CC(CC(C4)C2)C3)cc1-c1ccc(C)cc1 [Compound 10b]
Response: >2.1

Request: Subsequent entry: "CCOC(=O)c1nc(C)c(C(=O)OCc2ccc3c(c2)OCO3)cc1-c1ccc(F)cc1"
Response: >1

Request: Subsequent entry: CCOC(=O)c1nc(C)c(C(=O)OC/C=C(\C)CCC=C(C)C)cc1-c1ccccc1 [Compound 12a]
Response: 0.3

Request: Subsequent entry: CCOC(=O)c1nc(C)c(C(=O)OC/C=C(\C)CCC=C(C)C)cc1-c1ccc(C)cc1 [Compound 12b]
Response: >3.5

Request: Subsequent entry: "CCOC(=O)c1nc(C)c(C(=O)O[C@@H]2C[C@@H](C)CC[C@@H]2C(C)C)cc1-c1ccccc1"
Response: >2.4

Request: Subsequent entry: CCOC(=O)c1nc(C)c(C(=O)OCC23CC4CC(CC(C4)C2)C3)cc1-c1ccc(F)cc1 [Compound 10c]
Response: >1

Request: Subsequent entry: "CCOC(=O)c1cc(-c2ccccc2)c(C(=O)OCC)nc1C"
Response: >1

Request: Subsequent entry: CCOC(=O)c1nc(C)c(C(=O)OCC23CC4CC(CC(C4)C2)C3)cc1-c1ccccc1 [Compound 10a]
Response: >1.2

Request: Subsequent entry: "CCOC(=O)c1nc(C)c(C(=O)OCc2ccc3c(c2)OCO3)cc1-c1ccc(C)cc1"
Response: >1

Request: Subsequent entry: "CCOC(=O)c1nc(C)c(C(=O)O[C@@H]2C[C@@H](C)CC[C@H]2C(C)C)cc1-c1ccc(F)cc1"
Response: >2.2

Request: Subsequent entry: CCOC(=O)c1nc(C)c(C(=O)OCCC(C)CCC=C(C)C)cc1-c1ccc(F)cc1 (stereo not drawn) [Compound 11c]
Response: >1

Request: Subsequent entry: "CCOC(=O)c1nc(C)c(C(=O)OCc2ccc3c(c2)OCO3)cc1-c1ccccc1"
Response: >1

Request: Subsequent entry: "CCOC(=O)c1nc(C)c(C(=O)OCC=Cc2ccccc2)cc1-c1ccc(F)cc1"
Response: >1

Request: Subsequent entry: "CCOC(=O)c1nc(C)c(C(=O)OC/C=C/c2ccccc2)cc1-c1ccccc1"
Response: >1

Request: Subsequent entry: "CCOC(=O)c1nc(C)c(C(=O)O[C@@H]2C[C@H]3CC[C@@]2(C)C3(C)C)cc1-c1ccc(C)cc1"
Response: >2.5

* * *

For each record, write down the corresponding IC50.
Tested on: T. cruzi (A1) epimastigotes
Assay: In vitro trypanocidal activity, Alamar Blue assay, 48 h
Format: cell-based, Trypanosoma cruzi
Details: epimastigotes, A1 strain, 48 h; read-out: T. cruzi IC50 (µM ± SD) A1
The figure you give is taken to be in µM; do not add the unit.

Request: // lookup IC50 for CCOC(=O)c1nc(C)c(C(=O)OCc2ccccc2)cc1-c1ccccc1 [Compound 4a]
Response: 28.5

Request: Subsequent entry: CCOC(=O)c1nc(C)c(C(=O)OC2C[C@@H]3CC[C@@]2(C)C3(C)C)cc1-c1ccccc1 (stereo partly shown) [Compound 9a]
Response: 25

Request: Subsequent entry: CCOC(=O)c1nc(C)c(C(=O)OCc2ccccc2)cc1-c1ccc(C)cc1 [Compound 4b]
Response: 52.6

Request: Subsequent entry: CCOC(=O)c1nc(C)c(C(=O)O[C@@H]2C[C@H]3CC[C@@]2(C)C3(C)C)cc1-c1ccc(C)cc1 [Compound 9b]
Response: 38.5

* * *

For each record, write down the corresponding Selectivity Index T. cruzi A1.
Test system: T. cruzi (A1) epimastigotes
Assay: In vitro trypanocidal activity, Alamar Blue assay, 48 h
Assay type: cell-based, Trypanosoma cruzi
Settings: CC50 (J774.2)/IC50

Request: // lookup Selectivity Index T. cruzi A1 for "CCOC(=O)c1nc(C)c(C(=O)OCc2ccccc2)cc1-c1ccc(F)cc1"
Response: >1

Request: Subsequent entry: CCOC(=O)c1nc(C)c(C(=O)OC2C[C@@H]3CC[C@@]2(C)C3(C)C)cc1-c1ccc(F)cc1 (stereo partly shown)
Response: >1

Request: Subsequent entry: "CCOC(=O)c1nc(C)c(C(=O)OCC=Cc2ccccc2)cc1-c1ccc(F)cc1"
Response: >8.8

Request: Subsequent entry: "CCOC(=O)c1nc(C)c(C(=O)OCc2ccccc2)cc1-c1ccc(C)cc1"
Response: >3.8

* * *

Tested on: L. mexicana (MHOM/MX/2017/UABJO17FCQEPS) (FCQEPS) promastigotes
Test: In vitro leishmanicidal activity, MTT method, 48 h
Type: cell-based, Leishmania mexicana
Conditions: Leishmania mexicana, 48 h, promastigotes, FCQEPS strain, 48 h; read-out: L. mexicana IC50 (µM ± SD) FCQEPS
For each record, write down the corresponding IC50.
The figure you give is taken to be in µM; do not add the unit.

Request: // lookup IC50 for CCOC(=O)c1nc(C)c(C(=O)OCCC(C)CCC=C(C)C)cc1-c1ccccc1 (centres unmarked) [Compound 11a]
Response: 73

Request: Subsequent entry: CCOC(=O)c1nc(C)c(C(=O)OCC23CC4CC(CC(C4)C2)C3)cc1-c1ccc(C)cc1 [Compound 10b]
Response: 92.9

Request: Subsequent entry: CCOC(=O)c1cc(-c2ccc(F)cc2)c(C(=O)OCC)nc1C [Compound 3c]
Response: 118

Request: Subsequent entry: CCOC(=O)c1nc(C)c(C(=O)OC/C=C(\C)CCC=C(C)C)cc1-c1ccccc1 [Compound 12a]
Response: 75.3

* * *

System: T. cruzi (NINOA) epimastigotes
Experiment: In vitro trypanocidal activity, Alamar Blue assay, 48 h
Format: cell-based, Trypanosoma cruzi
Details: Trypanosoma cruzi, 48 h, epimastigotes, NINOA strain, 48 h; read-out: T. cruzi IC50 (µM ± SD) NINOA
result.type: IC50 (µM)
The figure you give is taken to be in µM; do not add the unit.

Request: // lookup IC50 for "CCOC(=O)c1nc(C)c(C(=O)O[C@@H]2C[C@@H](C)CC[C@@H]2C(C)C)cc1-c1ccc(C)cc1"
Response: 107

Request: Subsequent entry: CCOC(=O)c1nc(C)c(C(=O)OC2C[C@@H]3CC[C@@]2(C)C3(C)C)cc1-c1ccccc1 (stereo partly shown)
Response: 55.8

Request: Subsequent entry: CCOC(=O)c1nc(C)c(C(=O)OCC23CC4CC(CC(C4)C2)C3)cc1-c1ccccc1 [Compound 10a]
Response: 105

Request: Subsequent entry: CCOC(=O)c1nc(C)c(C(=O)OCCC(C)CCC=C(C)C)cc1-c1ccc(F)cc1 (stereo not shown) [Compound 11c]
Response: 79.9

Request: Subsequent entry: "CCOC(=O)c1nc(C)c(C(=O)OCC=Cc2ccccc2)cc1-c1ccc(F)cc1"
Response: 63.1

Request: Subsequent entry: "CCOC(=O)c1cc(-c2ccc(F)cc2)c(C(=O)OCC)nc1C"
Response: 100

Request: Subsequent entry: CCOC(=O)c1nc(C)c(C(=O)OCC23CC4CC(CC(C4)C2)C3)cc1-c1ccc(F)cc1 [Compound 10c]
Response: 50.6

Request: Subsequent entry: CCOC(=O)c1nc(C)c(C(=O)OC2C[C@@H]3CC[C@@]2(C)C3(C)C)cc1-c1ccc(F)cc1 (stereo partly shown)
Response: 26.2

Request: Subsequent entry: "CCOC(=O)c1cc(-c2ccc(C)cc2)c(C(=O)OCC)nc1C"
Response: 59.3

Request: Subsequent entry: "CCOC(=O)c1nc(C)c(C(=O)OC/C=C/c2ccccc2)cc1-c1ccccc1"
Response: 27.8

Request: Subsequent entry: CC1CS(=O)(=O)CCN1/N=C/c1ccc([N+](=O)[O-])o1 (stereo not shown) [Nfx, Nifurtimox, reference compound]
Response: 7.09

Request: Subsequent entry: CCOC(=O)c1nc(C)c(C(=O)OC/C=C(\C)CCC=C(C)C)cc1-c1ccccc1 [Compound 12a]
Response: 106

Request: Subsequent entry: "CCOC(=O)c1nc(C)c(C(=O)OCc2ccc3c(c2)OCO3)cc1-c1ccc(C)cc1"
Response: 54

Request: Subsequent entry: CCOC(=O)c1nc(C)c(C(=O)OC/C=C(\C)CCC=C(C)C)cc1-c1ccc(F)cc1 [Compound 12c]
Response: 49.1
